test system: influenza virus H1N1; assay: organism not typed; type: cell-based; details: 25 μg/ml; compound and H1N1 at the same time; MDCK (Table 10)

{"compound": "COc1cc2c(c(OC)c1OC)-c1c(cc3c(c1OC)OCO3)C[C@H](C)[C@@](C)(O)[C@H]2OC(=O)c1ccccc1 (atropisomer, axis not shown) [Benzoylgomisin P]", "cell survival ratio, D + V": "++++ (>100%)"}
{"compound": "COc1cc2c(cc1O)C(=O)[C@@H](C)[C@@H](C)[C@@H]2c1ccc(OC)c(OC)c1 [Schisandrone]", "cell survival ratio, D + V": "++++ (>100%)"}
{"compound": "COc1cc([C@@H]2c3cc(OC)c(O)cc3C(=O)[C@@H](C)[C@H]2C)ccc1O [Wulignan A1]", "cell survival ratio, D + V": "++++ (>100%)"}
